Test system: T-47D breast
Assay: NCI-60 one-dose screen, 48 h
Settings: 10 µM unless noted
Method: Growth inhibition of the T-47D human tumor cell line is measured as a screen for anti-cancer activity. Cells are grown in 96 well plates and exposed to the test compound for 48 hours. Compounds are tested at a single concentration, which is 10^-5 M for most compounds. The reported endpoint is percent growth (GI% or GIPRCNT), where numbers from 0 - 100% represent growth inhibition, and numbers from -100% - 0 represent cell death. For example, a value of 40 represents 60% growth inhibition. […]
About 83,000 compounds went through this panel and 20% of them were active in at least one assay; those are over-represented in the sample as a whole. Active and inactive are the calls of the source. Rule for the calls: active = growth percent below 10; inactive = the rest.
Hi there, use one of these labels in your reply, thanks! active, inactive

Observe how each entry below is paired with its result.
INSERT INTO results (chemsmiles, testedtarget, label) VALUES
  ('C/C=C(/C)C(=O)O[C@H]1CC[C@@]2(C)[C@@H]3CC[C@H]4[C@]5(O)C[C@H](O)[C@@]6(O)[C@@H](CN7C[C@@H](C)CC[C@H]7[C@@]6(C)O)[C@]5(O)C[C@@]42O[C@@]13O', 'T-47D breast', 'inactive'),
  ('CN1CCN(c2ccc(Cl)cc2)CC1', 'T-47D breast', 'inactive'),
  ('CC1=C([Te]c2ccccc2)C(=O)c2ccccc2C1=O', 'T-47D breast', 'active');

--- query ---
Query: recorded result category for N#CC(C#N)=Cc1cccc(F)c1 in this test inactive
